assay: physchem
conditions-used: 37 °C, pH 4.5, aqueous buffer, thermodynamic from solid
attribute-measured: Solubility

// recorded Solubility for COc1cc(-c2cn(C)c(=O)c(C)c2C)cc(OC)c1CN1CC[C@H](N2CCN(c3ccc(N[C@H]4CCC(=O)NC4=O)cc3F)CC2)C(F)(F)C1 [Form P] : 100 to 300 µg/mL

* * *

assay: Pharmacokinetic study in male Sprague Dawley rats
Assay type: in vivo, rat
conditions-used: male, Sprague Dawley, rat, plasma, oral, 10 mg/kg, 10 mg/kg PO, Male Sprague Dawley Rats, 4 h, Rat-3; read-out: Plasma Concentration (ng/mL) Rat-3
attribute-measured: concentration at 4 h (ng/mL)
Response body: numeric value in ng/mL, unit text excluded.

Sure, the documented concentration at 4 h for COc1cc(-c2cn(C)c(=O)c(C)c2C)cc(OC)c1CN1CC[C@H](N2CCN(c3ccc(N[C@H]4CCC(=O)NC4=O)cc3F)CC2)C(F)(F)C1 is 420
